Reported IC50 values are given for each entry in this list.
- ASSAY EXPLANATION: in vitro
- EXPERIMENTAL CONTEXT: African green monkey

Specify reported IC50 for the molecule shown: CCc1nc(N)nc(N)c1OCCCc1cn(-c2ccc(C(=O)OC)cc2)nn1 [Compound 24]
> 2 µM

Hello, please tell me recorded IC50 for this one: CCc1nc(N)nc(N)c1-c1cn(Cc2ccc(C(=O)O)cc2)nn1 [Compound 5]
> 10 µM

Look up and state reported IC50 for CCc1nc(N)nc(N)c1OCCCc1cn(-c2cccc(C(=O)O)c2)nn1 [Compound 23]
> 25 µM

Please supply the value of reported IC50 for the item CCc1nc(N)nc(N)c1OCc1csc(-c2ccc(OCC(=O)O)cc2)n1 [Compound 73]
> 50 µM
